Give measured selective drug sensitivity score for each item. Keep answers brief.
- System: PEER
- test name: selective drug sensitivity score (sDSS, relative to normal bone marrow) (sDSS (score)); higher = more potent and effective on the cell line relative to normal bone marrow cells;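 note: ALL cell lines in 384-well plates, five doses spanning 10,000-fold, each plate scaled between vehicle and 100 µmol/L benzalkonium chloride controls, sDSS an adapted area-under-curve metric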
- test conditions: 72 h
Answer with the value's number alone.

Recorded selective drug sensitivity score for O=C(Nc1ccncc1)C(=O)c1cn(Cc2ccc(Cl)cc2)c2ccccc12 [Indibulin] (top concentration 10000 nM) , please?
11.7

Next molecule: Cc1ccc(F)c(NC(=O)Nc2ccc(-c3cccc4[nH]nc(N)c34)cc2)c1 [Linifanib] (top concentration 1000 nM)
-1.12

Next molecule: C=CC(=O)N1CCC(Oc2cc3c(Nc4ccc(Cl)c(Cl)c4F)ncnc3cc2OC)CC1 [Poziotinib] (top concentration 1000 nM)
-0.22

Next molecule: Cc1cc(F)c(C(=O)Nc2cccc(-c3nncn3C(C)C)n2)cc1-n1cnc(C2CC2)c1 [Selonsertib] (top concentration 1000 nM)
0

Next molecule: C/C=C1\NC(=O)[C@H]2CSSCC/C=C/[C@H](CC(=O)N[C@H](C(C)C)C(=O)N2)OC(=O)[C@H](C(C)C)NC1=O [Romidepsin] (top concentration 1000 nM)
2.06

Next molecule: CCN(CC)C(=S)SSC(=S)N(CC)CC [Disulfiram(+CuCl2)] (top concentration 50000 nM)
-2.12

Next molecule: NC(=O)c1cccc(-c2cccc(OC(=O)NC3CCCCC3)c2)c1 [URB597] (top concentration 1000 nM)
-0.46

Next molecule: Nc1nc(F)nc2c1ncn2[C@@H]1O[C@H](CO)[C@@H](O)[C@@H]1O [Fludarabine] (top concentration 10000 nM)
-9.3

Next molecule: CS(=O)(=O)CCNCc1ccc(-c2ccc3ncnc(Nc4ccc(OCc5cccc(F)c5)c(Cl)c4)c3c2)o1 [Lapatinib] (top concentration 1000 nM)
0

Next molecule: CN(C)C[C@@H]1CCn2cc(c3ccccc32)C2=C(C(=O)NC2=O)c2cn(c3ccccc23)CCO1 [Ruboxistaurin] (top concentration 10000 nM)
0.46

Next molecule: O=c1[nH]c(C2CCCN2)nc2c1oc1ccc(Cl)cc12 (stereo not drawn) (top concentration 10000 nM)
0.3

Next molecule: COc1cc2c(N3CCN(C(=O)Nc4ccc(OC(C)C)cc4)CC3)ncnc2cc1OCCCN1CCCCC1 [Tandutinib] (top concentration 1000 nM)
0

Next molecule: CCn1cc(-c2ccnc3[nH]c(-c4cccc(CN(C)C)c4)cc23)c(-c2ccc(NC(=O)N(C)C)cc2)n1 (top concentration 1000 nM)
20.4

---

- Test system: MHH-CALL-4
- test name: selective drug sensitivity score (sDSS, relative to normal bone marrow) (sDSS (score)); higher = more potent and effective on the cell line relative to normal bone marrow cells
- test conditions: 72 h
Classify by measured selective drug sensitivity score: TRUE if it is equal to or exceeds -0.4, FALSE if it is smaller.

Please indicate if the recorded selective drug sensitivity score for Cc1sc2c(c1C)C(c1ccc(Cl)cc1)=N[C@@H](CC(=O)Nc1ccc(O)cc1)c1nnc(C)n1-2 [Birabresib] (top concentration 10000 nM) meets or exceeds -0.4.
TRUE

Next compound: CO[C@H]1C[C@@H]2CC[C@@H](C)[C@@](O)(O2)C(=O)C(=O)N2CCCC[C@H]2C(=O)O[C@H]([C@H](C)C[C@@H]2CC[C@@H](OC(=O)C(C)(CO)CO)[C@H](OC)C2)CC(=O)[C@H](C)/C=C(\C)[C@@H](O)[C@@H](OC)C(=O)[C@H](C)C[C@H](C)/C=C/C=C/C=C/1C [Temsirolimus] (top concentration 100 nM)
FALSE

Next compound: CS(=O)(=O)c1ccc(C(=O)Nc2ccc(Cl)c(-c3ccccn3)c2)c(Cl)c1 [Vismodegib] (top concentration 10000 nM)
TRUE

Next compound: Cc1cc(C)c(CNC(=O)c2cc(-c3ccc(CN4CCOCC4)cc3)cc3c2cnn3C2CCCC2)c(=O)[nH]1 [EPZ-5687] (top concentration 10000 nM)
TRUE

Next compound: Nc1ncnc2c1c(COc1cccc(Cl)c1)nn2C1CCOCC1 (top concentration 10000 nM)
FALSE

Next compound: N#Cc1ccc(COC[C@H]2O[C@@H](n3c(NCc4ccc(Cl)c(Cl)c4)nc4c(N)ncnc43)[C@H](O)[C@@H]2O)cc1 (top concentration 10000 nM)
FALSE

Next compound: Cc1ccc(C(=O)Nc2ccc(Oc3cc4cnn(C)c4cc3-c3cn[nH]c3)c(F)c2)c(=O)n1-c1ccc(F)cc1 [Merestinib] (top concentration 1000 nM)
FALSE

Next compound: O=C(NC1CCNCC1)c1n[nH]cc1NC(=O)c1c(Cl)cccc1Cl [AT7519] (top concentration 10000 nM)
FALSE

Next compound: CC1=C2C[C@H]3[C@@H](CC[C@@H]4C[C@H](NS(C)(=O)=O)CC[C@@]43C)[C@@H]2CC[C@@]2(C1)O[C@@H]1C[C@H](C)CN[C@H]1[C@H]2C [Saridegib] (top concentration 10000 nM)
TRUE

Next compound: CNC(=O)c1ccc(-c2cnc3ncc(Cc4ccc5ncccc5c4)n3n2)cc1F [Capmatinib] (top concentration 1000 nM)
TRUE

---

- System: KASUMI-2
- test name: selective drug sensitivity score (sDSS, relative to normal bone marrow) (sDSS (score)); higher = more potent and effective on the cell line relative to normal bone marrow cells
- test conditions: 72 h
property name: selective drug sensitivity score
Answer with the value's number alone.

Recorded selective drug sensitivity score for Cc1cc(C(C)Nc2ccccc2)c2nc(N3CCOCC3)cc(=O)n2c1 (stereo unspecified) [TGX-221] (top concentration 10000 nM) , please?
-1.64

Next compound: N[C@@H]1CCCN(c2c(/C=C3\SC(=O)NC3=O)cccc2-c2ccccc2)C1 [AZD1208] (top concentration 10000 nM)
-4.4

Next compound: C#Cc1cccc(Nc2ncnc3cc4c(cc23)OCCOCCOCCO4)c1 [Icotinib] (top concentration 10000 nM)
2.9

Next compound: Nc1ncnc2c1c(COc1cccc(Cl)c1)nn2C1CCOCC1 (top concentration 10000 nM)
2.46

Next compound: CC[C@@H](C(=O)[C@@H](C)[C@@H](O)[C@H](C)[C@@H]1O[C@@H]([C@@H](CC)C(=O)O)CC[C@@H]1C)[C@H]1O[C@]2(C=C[C@@H](O)[C@]3(CC[C@@](C)([C@H]4CC[C@](O)(CC)[C@H](C)O4)O3)O2)[C@H](C)C[C@@H]1C [Salinomycin] (top concentration 50000 nM)
-23.2

Next compound: CCNC(=O)CCC/C=C\C[C@@H]1[C@@H](/C=C/[C@@H](O)CCc2ccccc2)[C@H](O)C[C@@H]1O [Bimatoprost] (top concentration 5500 nM)
2.5

---

- Tested on: PF-382
- test name: selective drug sensitivity score (sDSS, relative to normal bone marrow) (sDSS (score)); higher = more potent and effective on the cell line relative to normal bone marrow cells
- test conditions: 72 h
Classify by measured selective drug sensitivity score: 1 if it is equal to or exceeds 0.02, -1 if it is smaller.

Please indicate if the recorded selective drug sensitivity score for Cc1ccc(C(=O)N(CCCN)[C@@H](c2oc3cc(Cl)ccc3c(=O)c2Cc2ccccc2)C(C)C)cc1 (top concentration 100 nM) meets or exceeds 0.02.
1

Next molecule: CN(CC(=O)N(Cc1ccc(C2CCCCC2)cc1)c1ccc(C(=O)O)cc1)S(=O)(=O)c1c(F)c(F)c(F)c(F)c1F [SH-4-54] (top concentration 25000 nM)
-1

Next molecule: Cc1nc(Nc2ncc(C(=O)Nc3c(C)cccc3Cl)s2)cc(N2CCN(CCO)CC2)n1 [Dasatinib] (top concentration 1000 nM)
1

Next molecule: O[C@H]1CC[C@H](Nc2ncc3nc(Nc4c(F)cc(F)cc4F)n([C@H]4CCOC4)c3n2)CC1 [Tanzisertib] (top concentration 10000 nM)
-1

Next molecule: Cc1cc(-c2ncc(CC(=O)Nc3ccc(-c4cnccn4)cn3)cc2C)ccn1 [NVP-LGK974] (top concentration 10000 nM)
1

Next molecule: COC[C@H](NC(=O)c1cnc(C)s1)C(=O)N[C@@H](COC)C(=O)N[C@@H](Cc1ccccc1)C(=O)[C@@]1(C)CO1 [Oprozomib] (top concentration 2500 nM)
1

Next molecule: CC1(C)OCCn2c1nc1c(N3CCOCC3)nc(-c3cnc(N)nc3)nc12 [GDC-0084] (top concentration 10000 nM)
1

Next molecule: COc1cc2c(Oc3ccc(NC(=O)C4(C(=O)Nc5ccc(F)cc5)CC4)cc3F)ccnc2cc1OCCCN1CCOCC1 [Foretinib] (top concentration 1000 nM)
1

Next molecule: CN(C)CCOc1ccc(/C(=C(/CCCl)c2ccccc2)c2ccccc2)cc1 [Toremifene] (top concentration 10000 nM)
1

Next molecule: Cc1cc(Nc2ncc(Cl)c(Nc3ccccc3S(=O)(=O)C(C)C)n2)c(OC(C)C)cc1C1CCNCC1 [Ceritinib] (top concentration 2500 nM)
-1

Next molecule: Nc1nc(F)nc2c1ncn2[C@@H]1O[C@H](CO)[C@@H](O)[C@@H]1O [Fludarabine] (top concentration 10000 nM)
-1
